meta.source: paper PMC8956739

# Tested on: P. aeruginosa ATCC 27853
# Assay Details: Neutropenic mouse bloodstream infection model
# Assay type: in vivo
# Condition Parameters: single IV dose 4 mg/kg, 4 h
Residues, ends and D or L forms follow the SMILES beside them.
Measurement Type: Log10 CFU/mL blood at 4 h, Mean (Log10 CFU/mL blood)
Give bare numbers, in Log10 CFU/mL blood.

The compound CC[C@@H]1NC(=O)[C@@H](CC(C)C)NC(=O)[C@H](CCN)NC(=O)[C@@H](NC(=O)[C@H](CN)NC(=O)[C@@H](NC(=O)[C@H](CCN)NC(=O)c2ccc(Cl)cc2Cl)[C@@H](C)O)CCNC(=O)[C@H]([C@@H](C)O)NC(=O)[C@H](CCN)NC(=O)[C@H](CCN)NC1=O [Lipopeptide F365] (HELM PEPTIDE1{[O=C(c1ccc(Cl)cc1Cl)[*:2]].[Dab].T.[NC[C@H](N[*:1])C(=O)[*:2]].[Dab].[Dab].[dL].[Abu].[Dab].[Dab].T}$PEPTIDE1,PEPTIDE1,5:R3-11:R2$$$V2.0) , when measured on P. aeruginosa ATCC 27853, yielded Log10 CFU/mL blood at 4 h, Mean of 4.36

---

# Assay Details: Acute toxicity in mice (maximum tolerated dose, IV bolus)
# Type: in vivo, mouse
# Condition Parameters: mouse, in vivo, iv, single IV bolus dose, replicates 1-4; read-out: MTD, single replicate
Residues, ends and D or L forms follow the SMILES beside them.
For each record, write down the corresponding MTD.
Give bare numbers, in mg/kg.

Record MTD for all entries; do not skip any.
1. CC[C@@H]1NC(=O)[C@@H](CC(C)C)NC(=O)[C@H](CCN)NC(=O)[C@@H](NC(=O)[C@H](CN)NC(=O)[C@@H](NC(=O)[C@H](CCN)NC(=O)c2cc(Cl)cc(Cl)c2)[C@@H](C)O)CCNC(=O)[C@H]([C@@H](C)O)NC(=O)[C@H](CCN)NC(=O)[C@H](CCN)NC1=O [Lipopeptide F381] (HELM PEPTIDE1{[O=C(c1cc(Cl)cc(Cl)c1)[*:2]].[Dab].T.[NC[C@H](N[*:1])C(=O)[*:2]].[Dab].[Dab].[dL].[Abu].[Dab].[Dab].T}$PEPTIDE1,PEPTIDE1,5:R3-11:R2$$$V2.0)
2. CCCCCCCC(=O)N[C@@H](CCN)C(=O)N[C@H](C(=O)N[C@@H](CN)C(=O)N[C@H]1CCNC(=O)[C@H]([C@@H](C)O)NC(=O)[C@H](CCN)NC(=O)[C@H](CCN)NC(=O)[C@H](CC)NC(=O)[C@@H](CC(C)C)NC(=O)[C@H](CCN)NC1=O)[C@@H](C)O [Lipopeptide F287] (HELM PEPTIDE1{[CCCCCCCC(=O)[*:2]].[Dab].T.[NC[C@H](N[*:1])C(=O)[*:2]].[Dab].[Dab].[dL].[Abu].[Dab].[Dab].T}$PEPTIDE1,PEPTIDE1,5:R3-11:R2$$$V2.0)
3. CC[C@@H]1NC(=O)[C@@H](CC(C)C)NC(=O)[C@H](CCN)NC(=O)[C@@H](NC(=O)[C@H](CN)NC(=O)[C@@H](NC(=O)[C@H](CCN)NC(=O)c2ccccc2)[C@@H](C)O)CCNC(=O)[C@H]([C@@H](C)O)NC(=O)[C@H](CCN)NC(=O)[C@H](CCN)NC1=O [Lipopeptide F379] (HELM PEPTIDE1{[O=C(c1ccccc1)[*:2]].[Dab].T.[NC[C@H](N[*:1])C(=O)[*:2]].[Dab].[Dab].[dL].[Abu].[Dab].[Dab].T}$PEPTIDE1,PEPTIDE1,5:R3-11:R2$$$V2.0)
4. CC[C@@H]1NC(=O)[C@@H](CC(C)C)NC(=O)[C@H](CCN)NC(=O)[C@@H](NC(=O)[C@H](CN)NC(=O)[C@@H](NC(=O)[C@H](CCN)NC(=O)c2ccc(Cl)cc2Cl)[C@@H](C)O)CCNC(=O)[C@H]([C@@H](C)O)NC(=O)[C@H](CCN)NC(=O)[C@H](CCN)NC1=O [Lipopeptide F365] (HELM PEPTIDE1{[O=C(c1ccc(Cl)cc1Cl)[*:2]].[Dab].T.[NC[C@H](N[*:1])C(=O)[*:2]].[Dab].[Dab].[dL].[Abu].[Dab].[Dab].T}$PEPTIDE1,PEPTIDE1,5:R3-11:R2$$$V2.0)

Solution:
[5, 6, 26, 13]

---

# Tested on: P. aeruginosa ATCC 27853
# Type: cell-based, Pseudomonas aeruginosa
# Condition Parameters: ATCC 27853
Residues, ends and D or L forms follow the SMILES beside them.
Measurement Type: MIC P. aeruginosa ATCC 27853

| Compound | Measurement Type | Experimental Value |
| --- | --- | --- |
| CCCCCCCC(=O)N[C@@H](CCN)C(=O)N[C@H](C(=O)N[C@@H](CCN)C(=O)N[C@H]1CCNC(=O)[C@H]([C@@H](C)O)NC(=O)[C@H](CCN)NC(=O)[C@H](CCN)NC(=O)[C@H]([C@@H](C)O)NC(=O)[C@@H]([C@H](C)O)NC(=O)[C@H](CCN)NC1=O)[C@@H](C)O [Lipopeptide F230] (HELM PEPTIDE1{[CCCCCCCC(=O)[*:2]].[Dab].T.[Dab].[Dab].[Dab].[dT].T.[Dab].[Dab].T}$PEPTIDE1,PEPTIDE1,5:R3-11:R2$$$V2.0) | MIC P. aeruginosa ATCC 27853 | >32 µg/mL |
| CCCCCCCC(=O)N[C@@H](CCN)C(=O)N[C@H](C(=O)N[C@H](CCN)C(=O)N[C@H]1CCNC(=O)[C@H]([C@@H](C)O)NC(=O)[C@H](CCN)NC(=O)[C@H](CCN)NC(=O)[C@H]([C@@H](C)O)NC(=O)[C@@H](CC(C)C)NC(=O)[C@H](CCN)NC1=O)[C@@H](C)O [Lipopeptide F085] (HELM PEPTIDE1{[CCCCCCCC(=O)[*:2]].[Dab].T.[NCC[C@@H](N[*:1])C(=O)[*:2]].[Dab].[Dab].[dL].T.[Dab].[Dab].T}$PEPTIDE1,PEPTIDE1,5:R3-11:R2$$$V2.0) | MIC P. aeruginosa ATCC 27853 | 0.5 µg/mL |
| CCCCCCCCC(=O)N[C@@H](CCN)C(=O)N[C@H](C(=O)N[C@@H](CN)C(=O)N[C@H]1CCNC(=O)[C@H]([C@@H](C)O)NC(=O)[C@H](CCN)NC(=O)[C@H](CCN)NC(=O)[C@H](CC)NC(=O)[C@@H](CC(C)C)NC(=O)[C@H](CCN)NC1=O)[C@@H](C)O [Lipopeptide F314] (HELM PEPTIDE1{[CCCCCCCCC(=O)[*:2]].[Dab].T.[NC[C@H](N[*:1])C(=O)[*:2]].[Dab].[Dab].[dL].[Abu].[Dab].[Dab].T}$PEPTIDE1,PEPTIDE1,5:R3-11:R2$$$V2.0) | MIC P. aeruginosa ATCC 27853 | 1 µg/mL |
| CCCCCC(=O)N[C@@H](CCN)C(=O)N[C@H](C(=O)N[C@@H](CN)C(=O)N[C@H]1CCNC(=O)[C@H]([C@@H](C)O)NC(=O)[C@H](CCN)NC(=O)[C@H](CCN)NC(=O)[C@H](CC)NC(=O)[C@@H](CC(C)C)NC(=O)[C@H](CCN)NC1=O)[C@@H](C)O [Lipopeptide F342] (HELM PEPTIDE1{[CCCCCC(=O)[*:2]].[Dab].T.[NC[C@H](N[*:1])C(=O)[*:2]].[Dab].[Dab].[dL].[Abu].[Dab].[Dab].T}$PEPTIDE1,PEPTIDE1,5:R3-11:R2$$$V2.0) | MIC P. aeruginosa ATCC 27853 | 0.5 µg/mL |

Here's the next entry for you.
Record CCCCCCCC(=O)N[C@@H](CCN)C(=O)N[C@H](C(=O)N[C@H](CO)C(=O)N[C@H]1CCNC(=O)[C@H]([C@@H](C)O)NC(=O)[C@H](CCN)NC(=O)[C@H](CCN)NC(=O)[C@H]([C@@H](C)O)NC(=O)[C@@H](CC(C)C)NC(=O)[C@H](CCN)NC1=O)[C@@H](C)O [Lipopeptide F183] (HELM PEPTIDE1{[CCCCCCCC(=O)[*:2]].[Dab].T.[dS].[Dab].[Dab].[dL].T.[Dab].[Dab].T}$PEPTIDE1,PEPTIDE1,5:R3-11:R2$$$V2.0) ; system P. aeruginosa ATCC 27853; MIC P. aeruginosa ATCC 27853 = 4 µg/mL

---

# System: P. aeruginosa ATCC 27853
# Type: cell-based, Pseudomonas aeruginosa
# Condition Parameters: ATCC 27853
Residues, ends and D or L forms follow the SMILES beside them.
Measurement Type: MIC P. aeruginosa ATCC 27853 (µg/mL)
Numbers only, in µg/mL.

Entry under test: CCCCCCCC(=O)N[C@@H](CCN)C(=O)N[C@H](C(=O)N[C@@H](CCN)C(=O)N[C@H]1CCNC(=O)[C@H]([C@@H](C)O)NC(=O)[C@H](CCN)NC(=O)[C@H](CCN)NC(=O)[C@H]([C@@H](C)O)NC(=O)[C@@H](CCCC)NC(=O)[C@H](CCN)NC1=O)[C@@H](C)O [Lipopeptide F226] (HELM PEPTIDE1{[CCCCCCCC(=O)[*:2]].[Dab].T.[Dab].[Dab].[Dab].[CCCC[C@@H](N[*:1])C(=O)[*:2]].T.[Dab].[Dab].T}$PEPTIDE1,PEPTIDE1,5:R3-11:R2$$$V2.0) . Its MIC P. aeruginosa ATCC 27853 was 1
